# tested-system: SARS-CoV SUD-core (SARS-CoV, UniProt P0C6X7 1207-1470)
# assay-procedure: BLI
# stated-conditions: protein: recombinant; tags: N-terminal 6xHis; G4
measured-metric: Kd
Please state the value followed by its unit.

Noted for CGGGAGGGCGGGGAGGGC (structured_RNA) [G4-TRF2 (BLI)] : its Kd reads 17 nM
